Attribution: patent US11147812B2

TGT: Rho kinase 2 (ROCK2) (Homo sapiens, UniProt O75116)
Sequence (O75116 whole entry): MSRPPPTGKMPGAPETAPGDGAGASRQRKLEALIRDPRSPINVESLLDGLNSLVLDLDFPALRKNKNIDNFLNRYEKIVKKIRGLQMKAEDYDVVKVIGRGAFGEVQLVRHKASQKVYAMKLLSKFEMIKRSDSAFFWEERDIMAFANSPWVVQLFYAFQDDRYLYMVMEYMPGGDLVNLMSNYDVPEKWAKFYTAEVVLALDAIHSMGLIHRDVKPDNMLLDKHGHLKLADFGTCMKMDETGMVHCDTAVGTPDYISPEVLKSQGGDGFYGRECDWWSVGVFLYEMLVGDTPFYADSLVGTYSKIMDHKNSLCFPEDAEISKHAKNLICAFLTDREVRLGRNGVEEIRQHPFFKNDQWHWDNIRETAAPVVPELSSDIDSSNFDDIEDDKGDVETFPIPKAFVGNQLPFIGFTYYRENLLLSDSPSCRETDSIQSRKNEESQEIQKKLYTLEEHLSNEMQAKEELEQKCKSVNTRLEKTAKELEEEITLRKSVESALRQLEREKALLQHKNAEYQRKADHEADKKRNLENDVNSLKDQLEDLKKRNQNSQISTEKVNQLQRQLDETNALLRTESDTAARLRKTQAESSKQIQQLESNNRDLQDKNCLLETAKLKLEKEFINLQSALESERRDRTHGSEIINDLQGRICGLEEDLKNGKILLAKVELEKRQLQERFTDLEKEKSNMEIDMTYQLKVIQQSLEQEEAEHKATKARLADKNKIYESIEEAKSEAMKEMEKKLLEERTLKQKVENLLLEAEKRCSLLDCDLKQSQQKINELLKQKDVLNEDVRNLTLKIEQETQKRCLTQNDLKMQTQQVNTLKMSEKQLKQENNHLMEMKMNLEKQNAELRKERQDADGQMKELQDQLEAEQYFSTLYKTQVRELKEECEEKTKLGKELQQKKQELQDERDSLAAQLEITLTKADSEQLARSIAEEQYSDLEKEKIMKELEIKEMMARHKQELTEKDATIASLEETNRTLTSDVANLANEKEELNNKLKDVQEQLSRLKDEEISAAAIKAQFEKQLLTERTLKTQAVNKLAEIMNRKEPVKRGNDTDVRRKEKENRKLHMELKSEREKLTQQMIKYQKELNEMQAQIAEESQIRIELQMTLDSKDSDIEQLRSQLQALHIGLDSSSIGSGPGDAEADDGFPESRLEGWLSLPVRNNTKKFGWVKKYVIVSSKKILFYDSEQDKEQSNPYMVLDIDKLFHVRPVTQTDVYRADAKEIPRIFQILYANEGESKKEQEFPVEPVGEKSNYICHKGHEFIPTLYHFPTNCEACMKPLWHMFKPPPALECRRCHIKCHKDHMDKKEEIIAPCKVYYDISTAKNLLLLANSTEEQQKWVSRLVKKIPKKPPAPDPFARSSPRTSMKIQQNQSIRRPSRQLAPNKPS
pKi: −log10 of the molar value.
ENDPOINT_LABEL: pKi

Examples with their reported pKi follow.
{"columns": ["COMPOUND", "RESULT"],
 "data": [
  ["CN1CCN(C(=O)C(N)c2ccc(Oc3ccnc4[nH]ccc34)cc2)CC1 (centres unmarked)", "< 7.52"],
  ["CN(C)CCCN1CNCC(Cc2ccc(Oc3ccnc4[nH]cc(C#N)c34)cc2)C1=O (centres unmarked)", "7.52 to 8.52"],
  ["CN1CCC(NC(=O)C(CN)Cc2ccc(Oc3ccnc4[nH]cc(C#N)c34)cc2)CC1 (centres unmarked)", "> 8.52"],
  ["Cc1c[nH]c2nccc(Oc3ccc(CC4CNCN(CCc5ccncc5)C4=O)cc3F)c12 (centres unmarked)", "< 7.52"],
  ["Cc1c[nH]c2nccc(Oc3ccc(C(CN)CC(=O)N4CCN(C5CC5)CC4)cc3)c12 (centres unmarked)", "7.52 to 8.52"]
]}

Request: Give the measured pKi of Cc1c[nH]c2nccc(Oc3ccc([C@H]4CNC[C@@H]4C(=O)NCc4ccccc4)cc3)c12 (single isomer, unassigned) [Example 17A] .
Response: > 8.52

Request: Try this compound too: NCC(Cc1ccc(Oc2ccnc3[nH]ccc23)cc1)C(=O)N1CCN(Cc2ccccc2)CC1 (single isomer, unassigned) [Example 32A]
Response: 7.52 to 8.52

Request: Try this compound too: Cc1c[nH]c2nccc(Oc3ccc(CC(CN)C(=O)N4CCN(Cc5ccccc5)CC4)cc3F)c12 (single isomer, unassigned) [Example 29B]
Response: > 8.52

====

TGT: UniProtKB Q13464
ENDPOINT_LABEL: Ki

Examples with their reported Ki follow.
{"columns": ["COMPOUND", "Ki"],
 "data": [
  ["Cc1c[nH]c2nccc(Oc3ccc(CC(CN)C(=O)N4CCN(Cc5ccccc5)CC4)cc3F)c12 (centres unmarked) [Example 29]", "< 3 nM"],
  ["CN(C)C(=O)C(N)c1ccc(Oc2ccnc3[nH]ccc23)cc1 (centres unmarked)", "> 30 nM"],
  ["Cc1c[nH]c2nccc(Oc3ccc([C@H]4CCN[C@@H]4C(=O)NCc4ccccc4)cc3)c12 (racemic)", "< 3 nM"],
  ["Cc1c[nH]c2nccc(Oc3ccc(C4CC(=O)N(CCc5ccncc5)CN4)cc3)c12 (centres unmarked)", "> 30 nM"]
]}

Proceed to the following item.
Request: Request body: readout Ki, system UniProtKB Q13464, query Cc1c[nH]c2nccc(Oc3ccc(CC(CN(C)C)C(=O)N4CCN(Cc5ccccc5)CC4)cc3)c12 (centres unmarked) . Return the value.
Response: < 3 nM

====

TGT: Rho kinase 2 (ROCK2) (Homo sapiens)
ENDPOINT_LABEL: Ki

Examples with their reported Ki follow.
{"columns": ["COMPOUND", "ENDPOINT_LABEL", "RESULT"],
 "data": [
  ["Cc1c[nH]c2nccc(Oc3ccc([C@H]4CNC[C@@H]4C(=O)NCc4ccccc4)cc3)c12 (racemic) [Example 17]", "Ki", "< 3 nM"],
  ["Cc1c[nH]c2nccc(Oc3ccc(CC(CN)C(=O)N4CCN(Cc5ccccn5)CC4)cc3F)c12 (single isomer, unassigned) [Example 5A]", "Ki", "3 to 30 nM"],
  ["NCC(Cc1ccc(Oc2ccnc3[nH]ccc23)cc1)C(=O)N1CCN(Cc2ccccc2)CC1 (single isomer, unassigned) [Example 32B]", "Ki", "< 3 nM"],
  ["Cc1c[nH]c2nccc(Oc3ccc(CC(CN)C(=O)N4CCN(Cc5ccccc5)CC4)cc3F)c12 (single isomer, unassigned) [Example 29A]", "Ki", "3 to 30 nM"],
  ["Cc1c[nH]c2nccc(Oc3ccc(CC4CNCN(CCCN(C)C)C4=O)cc3F)c12 (stereo not shown) [Example 41]", "Ki", "3 to 30 nM"],
  ["COCCCN1CNCC(Cc2ccc(Oc3ccnc4[nH]cc(C)c34)c(F)c2)C1=O (stereo not shown) [Example 42]", "Ki", "3 to 30 nM"]
]}

Proceed to the following item.
Request: Give the measured Ki of Cc1c[nH]c2nccc(Oc3ccc(CC(CN)C(=O)NC4CCCCC4)cc3F)c12 (stereo not shown) [Example 28] .
Response: < 3 nM

====

pKi: −log10 of the molar value.
Notes on pKi obtained with Rho kinase 1 (ROCK1) (Homo sapiens, UniProt Q13464).
Sequence (Q13464 whole entry): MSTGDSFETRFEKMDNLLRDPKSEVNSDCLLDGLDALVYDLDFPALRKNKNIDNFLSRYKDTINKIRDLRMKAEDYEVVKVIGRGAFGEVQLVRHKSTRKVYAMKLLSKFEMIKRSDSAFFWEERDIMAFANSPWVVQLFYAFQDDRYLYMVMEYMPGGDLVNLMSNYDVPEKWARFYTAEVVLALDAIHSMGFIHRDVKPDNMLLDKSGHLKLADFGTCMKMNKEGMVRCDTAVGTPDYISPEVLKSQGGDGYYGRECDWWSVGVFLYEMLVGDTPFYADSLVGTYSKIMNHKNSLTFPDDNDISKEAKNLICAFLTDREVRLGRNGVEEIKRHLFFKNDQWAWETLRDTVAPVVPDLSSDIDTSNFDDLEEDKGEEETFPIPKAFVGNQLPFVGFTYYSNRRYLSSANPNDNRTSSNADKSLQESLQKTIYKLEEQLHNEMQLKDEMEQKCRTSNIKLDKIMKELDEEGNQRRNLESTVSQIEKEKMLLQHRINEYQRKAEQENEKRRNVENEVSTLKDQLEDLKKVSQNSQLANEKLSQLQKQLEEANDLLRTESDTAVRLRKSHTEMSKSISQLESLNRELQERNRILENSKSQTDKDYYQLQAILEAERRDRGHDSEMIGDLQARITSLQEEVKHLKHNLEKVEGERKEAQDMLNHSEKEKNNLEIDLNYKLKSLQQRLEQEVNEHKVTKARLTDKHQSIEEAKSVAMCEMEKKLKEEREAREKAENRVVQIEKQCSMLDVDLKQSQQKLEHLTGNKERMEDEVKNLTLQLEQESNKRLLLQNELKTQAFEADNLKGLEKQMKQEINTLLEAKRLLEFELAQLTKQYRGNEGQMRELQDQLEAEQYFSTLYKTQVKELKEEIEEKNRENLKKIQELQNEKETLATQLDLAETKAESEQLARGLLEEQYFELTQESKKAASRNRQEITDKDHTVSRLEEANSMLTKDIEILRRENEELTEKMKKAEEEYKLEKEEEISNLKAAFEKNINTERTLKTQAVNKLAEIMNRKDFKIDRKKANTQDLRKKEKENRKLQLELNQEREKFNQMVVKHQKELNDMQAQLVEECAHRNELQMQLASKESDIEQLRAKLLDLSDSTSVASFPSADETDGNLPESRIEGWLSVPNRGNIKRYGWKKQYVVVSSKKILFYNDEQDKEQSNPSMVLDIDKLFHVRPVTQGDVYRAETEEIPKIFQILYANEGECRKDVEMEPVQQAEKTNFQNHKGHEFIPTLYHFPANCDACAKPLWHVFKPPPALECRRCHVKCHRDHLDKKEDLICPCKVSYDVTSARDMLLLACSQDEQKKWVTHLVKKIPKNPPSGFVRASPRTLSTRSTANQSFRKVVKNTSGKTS

Examples with their reported pKi follow.
{"columns": ["COMPOUND", "ENDPOINT_LABEL", "RESULT"],
 "data": [
  ["Cc1c[nH]c2nccc(Oc3ccc(CC(CN)C(=O)NC4CCCCC4)cc3)c12 (stereo not shown) [Example 31]", "pKi", "> 8.52"],
  ["COCCCNC(=O)[C@H]1NCC[C@@H]1c1ccc(Oc2ccnc3[nH]cc(C)c23)cc1 (racemic) [Example 21]", "pKi", "7.52 to 8.52"],
  ["Cc1c[nH]c2nccc(Oc3ccc(CC(CN)C(=O)N4CCN(Cc5ccccn5)CC4)cc3F)c12 (single isomer, unassigned) [Example 5A]", "pKi", "7.52 to 8.52"]
]}

Request: Give the measured pKi of NCC(Cc1ccc(Oc2ccnc3[nH]ccc23)cc1)C(=O)N1CCN(Cc2ccccc2)CC1 (single isomer, unassigned) [Example 32A] .
Response: 7.52 to 8.52
